tested on: Serine/threonine-protein kinase haspin (Homo sapiens)
Sequence (Q8TF76 whole entry): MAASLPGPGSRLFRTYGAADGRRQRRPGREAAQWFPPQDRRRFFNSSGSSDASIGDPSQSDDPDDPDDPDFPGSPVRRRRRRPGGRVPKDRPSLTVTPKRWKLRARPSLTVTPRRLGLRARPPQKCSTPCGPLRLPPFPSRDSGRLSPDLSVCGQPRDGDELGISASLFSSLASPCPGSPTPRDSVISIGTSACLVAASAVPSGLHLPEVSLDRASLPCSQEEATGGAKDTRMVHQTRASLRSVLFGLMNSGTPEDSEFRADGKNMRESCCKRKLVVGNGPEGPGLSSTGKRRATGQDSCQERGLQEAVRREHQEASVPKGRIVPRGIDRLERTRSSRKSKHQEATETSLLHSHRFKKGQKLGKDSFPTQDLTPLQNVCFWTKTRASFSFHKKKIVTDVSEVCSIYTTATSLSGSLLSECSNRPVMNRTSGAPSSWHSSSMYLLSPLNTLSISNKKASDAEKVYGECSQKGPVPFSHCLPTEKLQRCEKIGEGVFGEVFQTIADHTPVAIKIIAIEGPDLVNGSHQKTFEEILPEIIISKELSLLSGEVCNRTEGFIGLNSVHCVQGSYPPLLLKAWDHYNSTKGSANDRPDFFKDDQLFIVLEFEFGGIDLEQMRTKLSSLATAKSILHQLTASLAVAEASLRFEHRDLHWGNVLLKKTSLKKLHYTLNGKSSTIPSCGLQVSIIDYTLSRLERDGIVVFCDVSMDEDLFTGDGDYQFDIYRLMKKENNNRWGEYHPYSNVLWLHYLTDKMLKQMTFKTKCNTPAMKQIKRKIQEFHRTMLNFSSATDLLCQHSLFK
pIC50: −log10 of the molar value.
Give y when the value for pIC50 is at least 6. Give n when it is less.

smiles_string=Cc1nccc2c3ccc(OC(C)(C)C)cc3n(CCCCN)c12 class=n
smiles_string=Cc1nccc2c3ccc(F)cc3n(CCCCN)c12 class=y
smiles_string=CNCCCCn1c2cc(OC)ccc2c2ccnc(C)c21 class=y
smiles_string=COc1cccc2c3ccnc(C)c3n(CCCCN)c12 class=y

# next compound below
Could you please find out whether COc1ccc2c3ccnc(C(F)(F)F)c3n(CCCCN)c2c1 has pIC50 that meets 6 or exceeds it?
y
